Measured values drawn from patent US10947227B2 for this set.

# Tested on: IRF3 activation in THP-1 Dual Cells
# Protocol: IRF3 activation assay in THP-1 Dual Cells (QUANTI-Blue readout)
# Assay type: cell-based
# Condition details: Homo sapiens, THP1-Dual, 24 h, Table 1, 24 hours incubation
pEC50: −log10 of the molar value.
Readout name: pEC50

Below: 3 compounds and their reported pEC50.
>  <Sample smiles>
CCn1nc(C)cc1C(=O)Nc1nc2cc(C(N)=O)cc(C)c2n1C/C=C/Cn1c2nc(-c3cc(C)nn3CC)ccc2c2cc(C(N)=O)cc(OC)c21

>  <pEC50>
> 6.70

$$$$
>  <Sample smiles>
CCn1nc(C)cc1C(=O)Nc1nc2cc(C(N)=O)cc(OCCCOC(=O)c3cc(C)nn3CC)c2n1C/C=C/Cn1c2nc(-c3cc(C)nn3CC)ncc2c2cc(C(N)=O)cc(OCCCN3CCOCC3)c21

>  <pEC50>
> 6.70

$$$$
>  <Sample smiles>
CCn1nc(C)cc1C(=O)Nc1nc2cc(C(N)=O)cc(C)c2n1C/C=C/Cn1c2ccccc2c2cnc(-c3cc(C)nn3CC)nc21

>  <pEC50>
> 6.00

$$$$

Ask: Using the record for `CCn1nc(C)cc1C(=O)Nc1nc2cc(C(N)=O)cc(C)c2n1C/C=C/Cn1c2ccc(C(N)=O)cc2c2ccc(-c3cc(C)nn3CC)nc21` , state its measured pEC50.
Reply: > 6.00

Ask: Provide measured pEC50 value, entry: `CCn1nc(C)cc1C(=O)Nc1nc2cc(C(N)=O)cc(OCCCOC(=O)c3cc(C)nn3CC)c2n1C/C=C/Cn1c2nc(-c3cc(C)nn3CC)ncc2c2cc(C(N)=O)cc(OC)c21`
Reply: > 6.70

---

# System: IRF3 activation in THP-1 Dual Cells
# Protocol: IRF3 activation assay in THP-1 Dual Cells (QUANTI-Blue readout)
# Type: cell-based
# Condition details: Homo sapiens, THP1-Dual, 24 h, Table 1, 24 hours incubation
pEC50: −log10 of the molar value.
Some compounds, each annotated with its measured pEC50.

Past entries and their recorded results:
>  <Sample smiles>
CCn1nc(C)cc1C(=O)Nc1nc2cc(C(N)=O)cc(OCCCO)c2n1C/C=C/Cn1c2ccc(C(N)=O)cc2c2cnc(-c3cc(C)nn3CC)nc21

>  <Endpoint value>
> 6.70

$$$$
>  <Sample smiles>
CCn1nc(C)cc1C(=O)Nc1nc2cc(C(N)=O)cc(C)c2n1C/C=C/Cn1c2ccc(C(N)=O)cc2c2cnc(-c3cc(C)nn3CC)c(C#N)c21

>  <Endpoint value>
> 6.00

$$$$
>  <Sample smiles>
CCn1nc(C)cc1C(=O)Nc1nc2cc(C(N)=O)cc(OC)c2n1C/C=C/Cn1c2ccc(C(N)=O)cc2c2cnc(-c3cc(C)nn3CC)nc21

>  <Endpoint value>
> 6.00

$$$$
>  <Sample smiles>
CCn1nc(C)cc1C(=O)Nc1nc2cc(C(N)=O)cc(C)c2n1C/C=C/Cn1c2ccc(C(N)=O)cc2c2cnc(-c3cc(C)nn3C)nc21

>  <Endpoint value>
> 6.00

$$$$
>  <Sample smiles>
CCc1nn(C)cc1-c1ncc2c3cc(C(N)=O)ccc3n(C/C=C/Cn3c(NC(=O)c4cc(C)nn4CC)nc4cc(C(N)=O)cc(C)c43)c2n1

>  <Endpoint value>
> 6.00

$$$$

Continue with the compound presented below.
Ask: # lookup: IRF3 activation in THP-1 Dual Cells pEC50, key = `CCn1nc(C)cc1C(=O)Nc1nc2cc(C(N)=O)cc(C)c2n1C/C=C/Cn1c2ccc(C(N)=O)cc2c2cnc(-c3cc(C)nn3CC)nc21`
Reply: > 6.00

---

# Test system: IRF3 activation in THP-1 Dual Cells
# Protocol: IRF3 activation assay in THP-1 Dual Cells (QUANTI-Blue readout)
# Assay type: cell-based
# Condition details: Homo sapiens, THP1-Dual, 24 h, Table 1, 24 hours incubation
pEC50: −log10 of the molar value.
Readout name: pEC50

>  <Compound>
CCn1nc(C)cc1C(=O)Nc1nc2cc(C(N)=O)cc(C)c2n1C/C=C/Cn1c2ccc(C(N)=O)cc2c2cc(C#N)c(-c3cc(C)nn3CC)nc21 [Example 25]

>  <pEC50>
> 6.00

$$$$

Now consider a different compound.
Ask: Consider the compound CCCn1nc(C)cc1-c1ncc2c3cc(C(N)=O)ccc3n(C/C=C/Cn3c(NC(=O)c4cc(C)nn4CC)nc4cc(C(N)=O)cc(C)c43)c2n1 [Example 6] tested on IRF3 activation in THP-1 Dual Cells; state its pEC50.
Reply: > 6.70

---

# System: IRF3 activation in THP-1 Dual Cells
# Protocol: IRF3 activation assay in THP-1 Dual Cells (QUANTI-Blue readout)
# Format: cell-based
# Condition details: Homo sapiens, THP1-Dual, 24 h, Table 1, 24 hours incubation
# Description: THP-1 Dual Cells (Invivogen) were maintained in RPMI1640 medium with addition of 10% FBS, 100 μg/ml zeocin, 10 μg/ml blasticidin. Cells were added in a 96-well flat bottom assay plate at 100,000 per well in 100 μL complete RPMI medium. […] The amount of IRF3 activation was assessed by reading the absorbance at 620-655 nm with a microplate reader 2 hours later. […] The amount of NF-κB activation induced by the test compounds were determined by the luminescence above the untreated control. […]
Readout name: EC50

>  <Sample smiles>
CCn1nc(C)cc1C(=O)Nc1nc2cc(C(N)=O)cc(OCCCO)c2n1C/C=C/Cn1c2nc(-c3cc(C)nn3CC)ncc2c2cc(C(N)=O)cc(OC)c21

>  <EC50>
< 200 nM

$$$$
>  <Sample smiles>
CCn1nc(C)cc1C(=O)Nc1nc2cc(C(N)=O)cc(C)c2n1C/C=C/Cn1c2ccc(C(N)=O)cc2c2cnc(-c3ccnn3CC)nc21

>  <EC50>
< 1000 nM

$$$$
>  <Sample smiles>
CCn1nc(C)cc1C(=O)Nc1nc2cc(C(N)=O)cc(OCCCO)c2n1C/C=C/Cn1c2nc(-c3cc(C)nn3CC)ncc2c2cc(C(N)=O)cc(OCCCN3CCOCC3)c21

>  <EC50>
< 200 nM

$$$$

Ask: Please give the documented EC50 of `CCn1nc(C)cc1C(=O)Nc1nc2cc(C(N)=O)cc(C)c2n1C/C=C/Cn1c2ccc(C(N)=O)cc2c2cnc(-c3cc(C(F)(F)F)nn3CC)nc21`
Reply: < 1000 nM
